- study system: Sodium-dependent serotonin transporter (Rattus norvegicus)
- Sequence (P31652 whole entry): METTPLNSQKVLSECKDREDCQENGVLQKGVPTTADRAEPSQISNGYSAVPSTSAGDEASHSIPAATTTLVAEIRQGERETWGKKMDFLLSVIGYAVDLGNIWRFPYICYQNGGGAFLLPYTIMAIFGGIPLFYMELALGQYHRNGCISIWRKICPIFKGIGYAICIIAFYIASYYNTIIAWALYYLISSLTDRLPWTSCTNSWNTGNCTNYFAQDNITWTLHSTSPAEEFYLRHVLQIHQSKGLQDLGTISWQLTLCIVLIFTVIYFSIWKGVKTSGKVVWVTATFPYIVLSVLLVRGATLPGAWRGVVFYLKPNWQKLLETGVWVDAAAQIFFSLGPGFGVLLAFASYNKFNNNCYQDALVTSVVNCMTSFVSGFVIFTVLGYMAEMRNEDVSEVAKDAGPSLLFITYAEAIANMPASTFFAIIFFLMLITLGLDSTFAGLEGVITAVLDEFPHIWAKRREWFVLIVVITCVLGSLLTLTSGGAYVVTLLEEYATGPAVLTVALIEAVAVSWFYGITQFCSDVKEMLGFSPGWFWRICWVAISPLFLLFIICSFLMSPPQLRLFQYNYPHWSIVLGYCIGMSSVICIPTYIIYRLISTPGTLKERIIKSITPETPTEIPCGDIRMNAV
- assay procedure: Inhibition of 5-HT in Wistar rat synaptosomes assessed as [3H]-5-HT reuptake by liquid scintillation counting
pIC50: −log10 of the molar value.
assay endpoint: pIC50

[[record]]
molecule = "COc1cc2ccc(OC3CC4CCC(C3)N4C)cc2oc1=O (centres undefined)"
val = 8.00

[[record]]
molecule = "Cc1ccc(C2CC3CCC(C2)N3C)cc1Br (centres undefined)"
val = 8.85

[[record]]
molecule = "CN1C2CCC1CC(Oc1ccc3cc(-c4ccoc4)c(=O)oc3c1)C2 (centres undefined)"
val = 8.54

[[record]]
molecule = "CN1C2CCC1CC(c1ccc3ccccc3c1)C2 (centres undefined)"
val = 9.64


====

- study system: Voltage-gated inwardly rectifying potassium channel KCNH2 (Homo sapiens)
- Sequence (Q12809 whole entry): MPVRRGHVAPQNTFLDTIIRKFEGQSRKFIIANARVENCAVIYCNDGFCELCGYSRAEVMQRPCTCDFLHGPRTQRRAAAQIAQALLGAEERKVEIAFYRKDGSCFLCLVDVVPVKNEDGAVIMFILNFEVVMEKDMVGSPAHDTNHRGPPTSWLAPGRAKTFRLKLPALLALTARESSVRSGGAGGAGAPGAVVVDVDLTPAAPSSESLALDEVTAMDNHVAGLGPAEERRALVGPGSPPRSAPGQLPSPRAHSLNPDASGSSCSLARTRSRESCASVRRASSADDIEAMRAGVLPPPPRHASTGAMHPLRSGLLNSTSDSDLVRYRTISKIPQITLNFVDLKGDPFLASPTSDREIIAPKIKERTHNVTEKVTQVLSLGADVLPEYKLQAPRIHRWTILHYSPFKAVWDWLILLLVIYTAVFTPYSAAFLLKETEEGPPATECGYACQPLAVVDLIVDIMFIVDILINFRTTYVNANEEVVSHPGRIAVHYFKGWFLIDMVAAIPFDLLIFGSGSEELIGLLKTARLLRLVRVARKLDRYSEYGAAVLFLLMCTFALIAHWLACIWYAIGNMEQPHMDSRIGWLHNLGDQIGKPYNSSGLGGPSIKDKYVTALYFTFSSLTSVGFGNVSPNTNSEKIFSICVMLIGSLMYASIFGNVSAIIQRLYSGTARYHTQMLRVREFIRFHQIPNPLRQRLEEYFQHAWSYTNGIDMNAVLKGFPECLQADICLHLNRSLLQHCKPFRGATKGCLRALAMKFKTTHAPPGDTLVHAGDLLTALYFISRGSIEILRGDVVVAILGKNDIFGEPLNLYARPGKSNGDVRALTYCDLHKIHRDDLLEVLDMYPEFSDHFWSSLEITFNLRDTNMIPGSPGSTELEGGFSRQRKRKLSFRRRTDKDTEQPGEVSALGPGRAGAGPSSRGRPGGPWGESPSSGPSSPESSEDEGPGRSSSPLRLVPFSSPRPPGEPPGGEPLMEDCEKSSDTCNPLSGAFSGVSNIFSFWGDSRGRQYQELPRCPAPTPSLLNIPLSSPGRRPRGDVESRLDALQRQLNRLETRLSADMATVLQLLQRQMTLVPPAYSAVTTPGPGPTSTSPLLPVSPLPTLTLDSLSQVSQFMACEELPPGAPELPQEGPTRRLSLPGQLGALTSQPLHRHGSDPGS
- assay procedure: Inhibition of human ERG channel tail current
pIC50: −log10 of the molar value.
assay endpoint: pIC50

[[record]]
molecular_string = "CC1=NN(c2ccc(C)c(C)c2)C(=O)/C1=N\\Nc1cccc(-c2cccc(C(=O)O)c2)c1O"
val = 6.16


====

- study system: Sodium-dependent serotonin transporter (Homo sapiens)
- Sequence (P31645 whole entry): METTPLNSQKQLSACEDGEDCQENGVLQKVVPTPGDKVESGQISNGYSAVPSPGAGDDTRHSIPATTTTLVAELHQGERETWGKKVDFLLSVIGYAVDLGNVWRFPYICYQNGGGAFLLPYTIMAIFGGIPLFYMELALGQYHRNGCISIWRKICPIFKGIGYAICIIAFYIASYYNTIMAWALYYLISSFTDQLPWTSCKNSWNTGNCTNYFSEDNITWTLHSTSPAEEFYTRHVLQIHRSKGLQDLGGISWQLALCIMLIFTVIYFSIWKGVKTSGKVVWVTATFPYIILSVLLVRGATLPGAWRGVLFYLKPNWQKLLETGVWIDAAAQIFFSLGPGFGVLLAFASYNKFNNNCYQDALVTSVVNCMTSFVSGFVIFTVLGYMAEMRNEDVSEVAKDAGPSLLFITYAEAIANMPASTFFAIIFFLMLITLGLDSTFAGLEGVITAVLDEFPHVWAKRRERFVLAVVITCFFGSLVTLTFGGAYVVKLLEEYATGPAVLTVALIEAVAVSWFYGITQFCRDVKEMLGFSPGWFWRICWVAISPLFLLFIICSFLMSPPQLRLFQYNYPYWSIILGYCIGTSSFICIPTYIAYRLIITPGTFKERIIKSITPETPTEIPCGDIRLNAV
- assay procedure: Inhibition of recombinant human 5-HT transporter expressed in HEK293 cells assessed as reduction in [3H]-5-HT reuptake
pIC50: −log10 of the molar value.
Catalogue of pIC50 readings, one per entry.
assay endpoint: pIC50

[[record]]
compound = "CC(C)C(C)[C@]1(c2ccc3ccccc3c2)CC[C@](C)(O)CC1 (some centres not stated)"
study_system = "Sodium-dependent serotonin transporter (Homo sapiens)"
val = 7.74

[[record]]
compound = "CNC[C@]1(c2ccc3ccccc3c2)CC[C@@](C)(O)CC1"
study_system = "Sodium-dependent serotonin transporter (Homo sapiens)"
val = 7.96


====

- study system: Sodium-dependent dopamine transporter (Rattus norvegicus, UniProt P23977)
- Sequence (P23977 whole entry): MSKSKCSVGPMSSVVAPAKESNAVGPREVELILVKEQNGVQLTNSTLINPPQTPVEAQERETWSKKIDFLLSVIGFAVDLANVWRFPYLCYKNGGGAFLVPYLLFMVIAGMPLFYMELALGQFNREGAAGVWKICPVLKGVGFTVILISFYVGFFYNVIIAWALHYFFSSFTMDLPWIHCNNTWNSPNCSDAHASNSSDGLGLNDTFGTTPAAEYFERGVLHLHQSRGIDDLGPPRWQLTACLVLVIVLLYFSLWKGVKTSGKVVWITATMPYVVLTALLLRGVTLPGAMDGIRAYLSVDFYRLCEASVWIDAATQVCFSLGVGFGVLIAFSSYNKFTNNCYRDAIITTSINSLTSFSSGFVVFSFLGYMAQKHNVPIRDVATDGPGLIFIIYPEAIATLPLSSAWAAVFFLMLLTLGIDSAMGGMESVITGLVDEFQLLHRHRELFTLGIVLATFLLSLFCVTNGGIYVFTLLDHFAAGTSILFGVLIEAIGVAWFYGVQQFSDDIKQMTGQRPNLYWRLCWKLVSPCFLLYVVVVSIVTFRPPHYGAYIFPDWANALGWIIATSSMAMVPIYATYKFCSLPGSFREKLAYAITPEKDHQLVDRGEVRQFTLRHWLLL
- assay procedure: Inhibition of DAT in Wistar rat synaptosomes assessed as [3H]-DA reuptake by liquid scintillation counting
pIC50: −log10 of the molar value.
assay endpoint: pIC50

[[record]]
compound = "CN1C2CCC1CC(c1ccc3ccccc3c1)C2 (centres undefined)"
study_system = "Sodium-dependent dopamine transporter (Rattus norvegicus, UniProt P23977)"
val = 7.47

[[record]]
compound = "Cc1ccc(C2CC3CCC(C2)N3C)cc1Br (centres undefined)"
study_system = "Sodium-dependent dopamine transporter (Rattus norvegicus, UniProt P23977)"
val = 7.89

[[record]]
compound = "CN1C2CCC1CC(Oc1ccc3cc(-c4ccoc4)c(=O)oc3c1)C2 (centres undefined)"
study_system = "Sodium-dependent dopamine transporter (Rattus norvegicus, UniProt P23977)"
val = 7.15

[[record]]
compound = "COc1cc2ccc(OC3CC4CCC(C3)N4C)cc2oc1=O (centres undefined)"
study_system = "Sodium-dependent dopamine transporter (Rattus norvegicus, UniProt P23977)"
val = 8.00


====

- study system: Sodium-dependent noradrenaline transporter (Homo sapiens)
- Sequence (P23975 whole entry): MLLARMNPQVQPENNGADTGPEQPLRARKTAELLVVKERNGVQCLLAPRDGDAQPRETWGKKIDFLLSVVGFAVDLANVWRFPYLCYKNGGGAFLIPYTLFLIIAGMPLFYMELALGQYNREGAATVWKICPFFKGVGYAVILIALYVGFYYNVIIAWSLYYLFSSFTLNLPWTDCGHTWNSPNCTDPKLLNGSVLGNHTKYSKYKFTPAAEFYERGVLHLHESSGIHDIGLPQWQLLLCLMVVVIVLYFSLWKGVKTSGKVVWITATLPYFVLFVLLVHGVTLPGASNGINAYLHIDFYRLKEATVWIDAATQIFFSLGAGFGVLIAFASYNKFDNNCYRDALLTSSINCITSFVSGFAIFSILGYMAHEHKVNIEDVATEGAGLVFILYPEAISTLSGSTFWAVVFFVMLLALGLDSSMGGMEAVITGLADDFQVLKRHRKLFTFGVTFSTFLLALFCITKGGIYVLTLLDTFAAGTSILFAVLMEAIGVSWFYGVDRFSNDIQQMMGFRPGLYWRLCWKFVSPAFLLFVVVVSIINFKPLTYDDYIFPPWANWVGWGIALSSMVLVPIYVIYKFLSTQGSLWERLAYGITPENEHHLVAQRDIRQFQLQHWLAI
- assay procedure: Inhibition of recombinant human norepinephrine transporter assessed as reduction in [3H]-NA reuptake
pIC50: −log10 of the molar value.
assay endpoint: pIC50

[[record]]
compound = "CC(C)C(C)[C@]1(c2ccc3ccccc3c2)CC[C@](C)(O)CC1 (stereo partly specified)"
assay_endpoint = "pIC50"
val = 7.48

